Give measured cell viability (log2) for each item. Keep answers brief.
Tested on: A673/TR/shEF
testProtocol: cell viability (LOESS-normalised, relative to median of negative controls) (log2 ratio); higher = more viable cells (less compound effect), active = hit call of the paper (over 3 MAD below the median)
conditionDescription: 0.926 µM; library screen: screen3; EWS-FLI1 expression: high (no doxycycline); treatment time: 72 h
Screen size: about 3,200 compounds; about 300 (9.4%) showed activity. The entries come from a sample that favours actives as a whole.
Kindly provide the number alone.

Request: Value wanted: cell viability (log2) (A673/TR/shEF) of entry O=C(OC1CC2CCC(C1)[N+]21CCCC1)C(O)(c1ccccc1)c1ccccc1 (stereo not given)
Result: -0.0177

Request: Value wanted: cell viability (log2) (A673/TR/shEF) of entry CCOC(=O)c1cncn1C(C)c1ccccc1 (stereo not given)
Result: 0.0647

Request: Value wanted: cell viability (log2) (A673/TR/shEF) of entry Cc1cccc(C)c1NC(=O)CN1CCCC1=O
Result: 0.135

Request: Value wanted: cell viability (log2) (A673/TR/shEF) of entry C[C@]12CC[C@H](O)CC1=CC[C@@H]1[C@@H]2CC[C@]2(C)C(=O)CC[C@@H]12
Result: -0.013

Request: Value wanted: cell viability (log2) (A673/TR/shEF) of entry CN1[C@@H]2CC[C@H]1CC(OC(=O)C(CO)c1ccccc1)C2 (stereo not given in full)
Result: -0.0329

###

System: A673/TR/shEF
testProtocol: cell viability (LOESS-normalised, relative to median of negative controls) (log2 ratio); higher = more viable cells (less compound effect), active = hit call of the paper (over 3 MAD below the median)
conditionDescription: 0.25 µM; library screen: screen2; EWS-FLI1 expression: low (doxycycline-induced shRNA knockdown); treatment time: 72 h
Among all 3,200 compounds or so, about 300 (9.4%) showed activity. The sample as a whole holds a higher share of actives than the screen did.
measurementKind: cell viability (log2)
Kindly provide the number alone.

Request: Bench note: what cell viability (log2) did C=CCN1CCC2(C)c3cc(O)ccc3CC1C2C (stereo not given) show?
Result: 0.072

Request: Bench note: what cell viability (log2) did C/C(O)=C(\C#N)C(=O)Nc1cc(Br)ccc1Br show?
Result: 0.0965

Request: Bench note: what cell viability (log2) did O=C1C=CC(=O)c2c(O)cccc21 show?
Result: 0.00401

Request: Bench note: what cell viability (log2) did NC(=NCCCC(N)C(=O)O)N[N+](=O)[O-] (stereo not given) show?
Result: -0.00505

Request: Bench note: what cell viability (log2) did C[N+]1(C)CCc2cc3c(cc2[C@H]1[C@@H]1OC(=O)c2c1ccc1c2OCO1)OCO3 show?
Result: 0.0886

###

Test system: A673/TR/shEF
testProtocol: cell viability (LOESS-normalised, relative to median of negative controls) (log2 ratio); higher = more viable cells (less compound effect), active = hit call of the paper (over 3 MAD below the median)
conditionDescription: 2.5 µM; library screen: screen1; EWS-FLI1 expression: low (doxycycline-induced shRNA knockdown); treatment time: 72 h
Screen size: about 3,200 compounds; about 300 (9.4%) showed activity. Only a selection was taken, and actives are over-represented in it overall.
Give measured cell viability (log2) for each item. Keep answers brief.
Kindly provide the number alone.

Request: Value wanted: cell viability (log2) (A673/TR/shEF) of entry O=C(O)CF
Result: 0.0882

Request: Value wanted: cell viability (log2) (A673/TR/shEF) of entry COc1cc2c(c(OC)c1OC)-c1ccc(OC)c(=O)cc1[C@@H](NC(C)=O)CC2
Result: -0.869

Request: Value wanted: cell viability (log2) (A673/TR/shEF) of entry C/C=C(/C)C(=O)O[C@H]1CC[C@@]2(C)[C@@H]3CC[C@H]4[C@]5(O)C[C@H](O)[C@@]6(O)[C@@H](CN7C[C@@H](C)CC[C@H]7[C@@]6(C)O)[C@]5(O)C[C@@]42O[C@]13O
Result: -0.0784

Request: Value wanted: cell viability (log2) (A673/TR/shEF) of entry FC(F)(F)c1cccc(N2CCNCC2)c1
Result: 0.0985

Request: Value wanted: cell viability (log2) (A673/TR/shEF) of entry C=C1C2CC[C@@]3(C)[C@H](c4ccoc4)OC(=O)C[C@]13O[C@H]1CC(=O)C(C)(C)[C@H](C(OC(C)=O)C(=O)OC)[C@@]21C (some centres not stated)
Result: 0.119

Request: Value wanted: cell viability (log2) (A673/TR/shEF) of entry C=C(C)c1cc2cc(C(C)=O)c(O)cc2o1
Result: 0.00912

Request: Value wanted: cell viability (log2) (A673/TR/shEF) of entry CN[C@@H]1[C@@H](O)[C@@H](O[C@@H]2[C@@H](O)[C@H](O[C@H]3O[C@H](CN)CC[C@H]3N)[C@@H](N)C[C@H]2N)OC[C@]1(C)O
Result: 0.0476

Request: Value wanted: cell viability (log2) (A673/TR/shEF) of entry COc1cc2c(c(OC)c1OC)-c1ccc(O)c(=O)cc1C(NC(C)=O)CC2 (configuration not stated)
Result: -0.493

Request: Value wanted: cell viability (log2) (A673/TR/shEF) of entry CCOP(=S)(OCC)SCSP(=S)(OCC)OCC
Result: 0.0694

Request: Value wanted: cell viability (log2) (A673/TR/shEF) of entry CNC(=O)CSP(=S)(OC)OC
Result: 0.0982

Request: Value wanted: cell viability (log2) (A673/TR/shEF) of entry O=C1c2ccccc2C(=O)c2ccccc21
Result: 0.0785

Request: Value wanted: cell viability (log2) (A673/TR/shEF) of entry COc1cc2c(cc1OC)C(=O)c1ccc(OC)c(OC)c1OCC(=O)C2
Result: 0.0978

###

Test system: A673/TR/shEF
testProtocol: cell viability (LOESS-normalised, relative to median of negative controls) (log2 ratio); higher = more viable cells (less compound effect), active = hit call of the paper (over 3 MAD below the median)
conditionDescription: 0.25 µM; library screen: screen2; EWS-FLI1 expression: low (doxycycline-induced shRNA knockdown); treatment time: 72 h
Hit rate of the full screen: of about 3,200 compounds, about 300 (9.4%) showed activity. What follows is part of a selection rich in actives, with near analogues and random picks from the rest.
Permitted responses: T (active), F (inactive)

Request: Test call for this compound, please: C=CCN1CC[C@@]2(C)c3cc(O)ccc3CC1[C@@H]2C
Result: F

Request: Test call for this compound, please: C[C@@H]1CC[C@@]2(NC1)O[C@H]1C[C@H]3[C@@H]4CC=C5C[C@@H](O)CC[C@]5(C)[C@H]4CC[C@]3(C)[C@H]1[C@@H]2C
Result: F

Request: Test call for this compound, please: CC1C2Cc3ccc(O)cc3C1(C)CCN2CC1CC1 (stereo not given)
Result: F

Request: Test call for this compound, please: NCC(O)c1cc(O)c(O)cc1F (stereo not given)
Result: F

Request: Test call for this compound, please: CCC1(C2=NCCN2)Cc2ccccc2O1 (stereo not given)
Result: F

Request: Test call for this compound, please: COc1cc(CC(C)N)c(OC)cc1I (stereo not given)
Result: F

Request: Test call for this compound, please: C/C=C(/C)C(=O)O[C@H]1C(C)=C2[C@H]([C@@H]1OC(=O)CCCCCCC)[C@@](C)(OC(C)=O)C[C@H](OC(=O)CCC)[C@@]1(O)[C@H]2OC(=O)[C@@]1(C)O
Result: T

Request: Test call for this compound, please: CCCCCCCCCCCCCC(=O)O[C@@H]1[C@@H](C)[C@@]2(O)[C@@H](C=C(CO)C[C@]3(O)C(=O)C(C)=C[C@@H]23)[C@@H]2C(C)(C)[C@]12OC(C)=O
Result: T

Request: Test call for this compound, please: C[C@]12Cc3cn4c(nc3C=C1CCC1C2CC[C@@]2(C)[C@H]1CC[C@@]2(O)C#N)nc1ccccc14 (stereo not given in full)
Result: F

Request: Test call for this compound, please: CN1C2CCC1CC(OC(c1ccccc1)c1ccc(Cl)cc1)C2 (stereo not given)
Result: F

Request: Test call for this compound, please: C[C@@H](N)Cc1cnc[nH]1
Result: F

Request: Test call for this compound, please: O=C(O)CCCc1ccc(N(CCCl)CCCl)cc1
Result: F

Request: Test call for this compound, please: S=C=Nc1cccc(C2(N3CCCCC3)CCCCC2)c1
Result: F

Request: Test call for this compound, please: COc1ccc(CCN)cc1O
Result: F

Request: Test call for this compound, please: C=CCN1CC[C@]23c4c5ccc(O)c4O[C@@H]2/C(=N/N=C2\CC[C@@]4(O)C6Cc7ccc(O)c8c7[C@@]4(CCN6CC=C)[C@@H]2O8)CC[C@@]3(O)C1C5
Result: F

Request: Test call for this compound, please: Oc1cc2c(cc1O)[C@H]1c3ccccc3CN[C@@H]1CC2
Result: F

Request: Test call for this compound, please: COc1cc(CCN)ccc1O
Result: F

Request: Test call for this compound, please: CN1C2CCC1CC(OC(=O)C(CO)c1ccccc1)C2 (stereo not given)
Result: F

Request: Test call for this compound, please: CC(=O)OCC1=C(C(=O)O)N2C(=O)[C@@H](NC(=O)CCC[C@@H](N)C(=O)O)[C@H]2SC1
Result: F

Request: Test call for this compound, please: CC(=O)[C@H]1CC[C@H]2[C@@H]3CC[C@H]4C[C@H](O)CC[C@]4(C)[C@H]3CC[C@]12C
Result: F

Request: Test call for this compound, please: CCCN1CCc2cccc3c2[C@H]1Cc1ccc(O)c(O)c1-3
Result: F

Request: Test call for this compound, please: NCCc1ccc(S(=O)(=O)F)cc1
Result: F

Request: Test call for this compound, please: O=C(CCCN1CCC2(CC1)C(=O)N(CCc1ccc(N=C=S)cc1)CN2c1ccccc1)c1ccc(F)cc1
Result: F

Request: Test call for this compound, please: CC(C)NC(C)Cc1ccc(I)cc1 (stereo not given)
Result: F

Request: Test call for this compound, please: CC(O)C(C)OC(=O)[C@@H]1C[C@@H]2c3cccc4c3c(cn4C(C)C)C[C@H]2N(C)C1 (stereo not given in full)
Result: F

Request: Test call for this compound, please: CN1[C@H]2CC(OC(=O)C(CO)c3ccccc3)C[C@H]1[C@H]1O[C@H]12 (stereo not given in full)
Result: F

Request: Test call for this compound, please: NC(CCP(=O)(O)O)C(=O)O (stereo not given)
Result: F

Request: Test call for this compound, please: C[C@@H]1c2cc(O)c(O)cc2CCN1C
Result: F

Request: Test call for this compound, please: CC(C)[C@H]1CN[C@H](C(=O)O)[C@H]1CC(=O)O
Result: F

Request: Test call for this compound, please: C=CCN1CCc2cccc3c2[C@H]1Cc1ccc(O)c(O)c1-3
Result: F
